src = patent US20220072015A1

System: senescent fibroblasts (SnCs), IMR90 cells
assay-info: Senolytic activity: killing irradiated senescent IMR90 fibroblasts vs replicating or quiescent fibroblasts (CellTiter-Glo)
Format: cell-based, human
condition-label: specificity for senescent cells vs replicating or quiescent fibroblasts; 1.0 = non-specific
Reported Best SI values follow for various compounds
Lab note: record the figure alone, no unit after it.

Known Best SI results, listed for orientation:
compound	quantitative-result
CCn1c(C)c(C(=O)O)c(-c2cccc(N3CCN(c4ccc(NS(=O)(=O)c5ccc(N[C@H](CCN6CCC(O)CC6)CSc6ccccc6)c(S(=O)(=O)C(F)(F)F)c5)cc4)CC3)c2)c1-c1ccc(Cl)cc1 [BM-957]	11.7
Cc1c(C(=O)O)c(-c2cccc(N3CCN(c4ccc(NS(=O)(=O)c5ccc(N[C@H](CCN6CCC(O)CC6)CSc6ccccc6)c(S(=O)(=O)C(F)(F)F)c5)cc4)CC3)c2)c(-c2ccc(Cl)cc2)n1C(C)C [BM-962]	18.5
Cc1c(S(C)(=O)=O)c(-c2cc(F)cc(N3CCN(c4ccc(NS(=O)(=O)c5ccc(N[C@H](CCN6CCC(O)CC6)CSc6ccccc6)c(S(=O)(=O)C(F)(F)F)c5)cc4)CC3)c2)c(-c2ccc(F)cc2)n1C(C)C [BM-1195]	128.7
Cc1c(S(C)(=O)=O)c(-c2cc(F)cc(N3CCN(c4ccc(NS(=O)(=O)c5ccc(N[C@H](CCN6CCC(C(=O)O)CC6)CSc6ccccc6)c(S(=O)(=O)C(F)(F)F)c5)cc4)CC3)c2)c(-c2ccc(Cl)cc2)n1C(C)C [BM-1244]	66.7
Cc1c(S(C)(=O)=O)c(-c2cc(F)cc(N3CCN(c4ccc(NS(=O)(=O)c5ccc(N[C@H](CCN6CCC(O)CC6)CSc6ccccc6)c(S(=O)(=O)C(F)(F)F)c5)cc4)CC3)c2)c(-c2ccc(Cl)cc2)n1C(C)C [BM-1197]	366.7

// returns reported Best SI for input CCn1c(C)c(S(C)(=O)=O)c(-c2cc(F)cc(N3CCN(c4ccc(NS(=O)(=O)c5ccc(N[C@H](CCN6CCC(O)CC6)CSc6ccccc6)c(S(=O)(=O)C(F)(F)F)c5)cc4)CC3)c2)c1-c1ccc(F)cc1 [BM-1192]
60.0
